Let's look at some compounds and their measured IC50.
Tested on: Wnt reporter (TCF/LEF1 promoter)
Assay: HEK STF293 Wnt reporter (TOPFlash) luciferase assay, Steady Glo normalised to Cell Titer
Assay type: cell-based, human
Details: Homo sapiens, STF/293; Examples for Formulae (I), (II), and (III); HEK STF293 cells, Wnt3a-conditioned media; read-out: TOPFlash IC50 category
QUANTITY_MEASURED: IC50

>  <CHEMICAL_SMILES>
Cc1nn(Cc2ccc(C(F)(F)F)cc2)c(C)c1C(=O)Nc1nc(-c2ccccn2)cs1

>  <VALUE_OBSERVED>
500 to 1000 nM

$$$$
>  <CHEMICAL_SMILES>
Cc1nn(-c2ccc(F)cc2)c(C)c1C(=O)Nc1nc(-c2ccccn2)cs1

>  <VALUE_OBSERVED>
1000 to 10000 nM

$$$$
>  <CHEMICAL_SMILES>
Cc1nn(-c2ccc(F)cc2F)c(C)c1C(=O)Nc1nc(-c2ccccn2)cs1

>  <VALUE_OBSERVED>
500 to 1000 nM

$$$$
>  <CHEMICAL_SMILES>
Cc1nn(Cc2ccc(F)cc2)c(C)c1C(=O)Nc1nc(-c2ccccn2)cs1

>  <VALUE_OBSERVED>
500 to 1000 nM

$$$$
>  <CHEMICAL_SMILES>
Cc1nn(-c2ccccc2Cl)c(C(F)F)c1C(=O)Nc1nc(-c2ccccn2)cs1

>  <VALUE_OBSERVED>
200 to 500 nM

$$$$
>  <CHEMICAL_SMILES>
Cc1nn(Cc2ccccc2)c(C)c1C(=O)Nc1nc(-c2ccccn2)cs1

>  <VALUE_OBSERVED>
500 to 1000 nM

$$$$
>  <CHEMICAL_SMILES>
O=C(Nc1nc(-c2ccccn2)cs1)c1cnnn1-c1cccc(F)c1

>  <VALUE_OBSERVED>
200 to 500 nM

$$$$
>  <CHEMICAL_SMILES>
Cc1c(C(=O)Nc2nc(-c3ccccn3)cs2)cnn1Cc1ccccc1

>  <VALUE_OBSERVED>
1000 to 10000 nM

$$$$
>  <CHEMICAL_SMILES>
COc1ccc(Cn2cc(C(=O)Nc3nc(-c4ccccn4)cs3)cn2)cc1

>  <VALUE_OBSERVED>
1000 to 10000 nM

$$$$
>  <CHEMICAL_SMILES>
Cn1nc(C(=O)Nc2nc(-c3ccccn3)cs2)c(-c2ccc(F)cc2)n1

>  <VALUE_OBSERVED>
200 to 500 nM

$$$$
